- assay_notes: Inhibition of HCV 1a NS5B polymerase
- Parameters: species or system Hepatitis C virus subtype 1a
metric: IC50 (nM)

INSERT INTO measurements (smiles_record, metric, value_unit, quantitative_result) VALUES
  ('CC(C)CCC1(CCC(C)C)C(=O)C(C2=NS(=O)(=O)c3ccccc3N2)=C(O)c2ccccc21', 'IC50', 'nM', 820),
  ('CCCC1(CCC)C(=O)C(C2=NS(=O)(=O)c3ccccc3N2)=C(O)c2ccccc21', 'IC50', 'nM', 2200),
  ('CCCC1(CCC)C(=O)C(C2=NS(=O)(=O)c3cc(OCC(N)=O)ccc3N2)=C(O)c2ccccc21', 'IC50', 'nM', 240),
  ('CC(C)CCC1(CCC(C)C)C(=O)C(C2=NS(=O)(=O)c3cc(NS(C)(=O)=O)ccc3N2)=C(O)c2ccccc21', 'IC50', 'nM', 68);

----------
- assay_notes: Oral bioavailability in rat at 5 mg/kg
- Format: ADME, organism-based
- run_parameters: in vivo
metric: bioavailability

INSERT INTO measurements (smiles_record, result) VALUES
  ('CCCCC1(CCCC)C(=O)C(C2=NS(=O)(=O)c3cc(NS(C)(=O)=O)ccc3N2)=C(O)c2ccccc21', '94.3%');

----------
- assay_notes: AUC (0 to infinity) in rat at 5 mg/kg, iv
- Format: ADME, organism-based
- Parameters: time infinity, dose 5 mg/kg, route intravenous
- run_parameters: plasma
metric: AUC(0-inf)

INSERT INTO results (smiles_record, metric, result) VALUES
  ('CCCCC1(CCCC)C(=O)C(C2=NS(=O)(=O)c3cc(NS(C)(=O)=O)ccc3N2)=C(O)c2ccccc21', 'AUC(0-inf)', '7300 ng·h/mL');

----------
- assay_notes: Half life in rat at 5 mg/kg, po
- Type: ADME, organism-based
- Parameters: dose 5 mg/kg, route oral
- run_parameters: in vivo
metric: half-life (h)

INSERT INTO assay_data (smiles_record, quantitative_result) VALUES
  ('CCCCC1(CCCC)C(=O)C(C2=NS(=O)(=O)c3cc(NS(C)(=O)=O)ccc3N2)=C(O)c2ccccc21', 4.3);

----------
- assay_notes: Volume of distribution at steady state in rat at 5 mg/kg, iv
- Type: ADME, organism-based
- Parameters: dose 5 mg/kg, route intravenous
- run_parameters: in vivo, read-out: Vdss
metric: Vd

INSERT INTO assay_data (smiles_record, result) VALUES
  ('CCCCC1(CCCC)C(=O)C(C2=NS(=O)(=O)c3cc(NS(C)(=O)=O)ccc3N2)=C(O)c2ccccc21', '1.87 L/kg');

----------
- assay_notes: Drug level in rat plasma at 5 mg/kg, po after 1 hr
- Assay type: ADME, organism-based
- Parameters: dose 5 mg/kg, route oral
- run_parameters: read-out: Activity
metric: concentration at 1 h (ng/mL)

INSERT INTO assay_data (smiles_record, metric, quantitative_result) VALUES
  ('CCCCC1(CCCC)C(=O)C(C2=NS(=O)(=O)c3cc(NS(C)(=O)=O)ccc3N2)=C(O)c2ccccc21', 'concentration at 1 h', 450);

----------
- assay_notes: Drug level in rat liver at 5 mg/kg, po after 1 hr
- Format: ADME, organism-based
- Design: dose 5 mg/kg, route oral
- run_parameters: read-out: Activity
metric: concentration at 1 h

INSERT INTO results (smiles_record, metric, result) VALUES
  ('CCCCC1(CCCC)C(=O)C(C2=NS(=O)(=O)c3cc(NS(C)(=O)=O)ccc3N2)=C(O)c2ccccc21', 'concentration at 1 h', '14200 ng/g');

----------
- assay_notes: Inhibition of HCV 1a NS5B polymerase
- Parameters: species or system Hepatitis C virus subtype 1a
metric: IC50 (µM)

INSERT INTO measurements (smiles_record, metric, quantitative_result) VALUES
  ('CC1(C)C(=O)C(C2=NS(=O)(=O)c3ccccc3N2)=C(O)c2ccccc21', 'IC50', 2.2),
  ('CC(C)CCn1c(=O)c(C2=NS(=O)(=O)c3ccccc3N2)c(O)c2ccccc21', 'IC50', 0.54),
  ('CCCCC1(CCCC)C(=O)C(C2=NS(=O)(=O)c3cc(NS(C)(=O)=O)ccc3N2)=C(O)c2ccccc21', 'IC50', 0.01),
  ('CCCCC1(CCCC)C(=O)C(C2=NS(=O)(=O)c3cc(OCC(N)=O)ccc3N2)=C(O)c2ccccc21', 'IC50', 0.26),
  ('CCCCC1(CCCC)C(=O)C(C2=NS(=O)(=O)c3ccccc3N2)=C(O)c2ccccc21', 'IC50', 0.99),
  ('CCCC1(CCC)C(=O)C(C2=NS(=O)(=O)c3cc(NS(C)(=O)=O)ccc3N2)=C(O)c2ccccc21', 'IC50', 0.099),
  ('CC1(C)C(=O)C(C2=NS(=O)(=O)c3cc(NS(C)(=O)=O)ccc3N2)=C(O)c2ccccc21', 'IC50', 0.93),
  ('O=c1c(C2=NS(=O)(=O)c3ccccc3N2)c(O)c2ccccc2n1NC1CCC1', 'IC50', 0.28),
  ('CC(C)CCC1(CCC(C)C)C(=O)C(C2=NS(=O)(=O)c3cc(OCC(N)=O)ccc3N2)=C(O)c2ccccc21', 'IC50', 0.32);

----------
- assay_notes: Half life in rat at 5 mg/kg, iv
- Assay type: ADME, organism-based
- Parameters: dose 5 mg/kg, route intravenous
- run_parameters: in vivo
metric: half-life (h)

INSERT INTO results (smiles_record, quantitative_result) VALUES
  ('CCCCC1(CCCC)C(=O)C(C2=NS(=O)(=O)c3cc(NS(C)(=O)=O)ccc3N2)=C(O)c2ccccc21', 4.3);

----------
- assay_notes: Tmax in rat at 5 mg/kg, po
- Format: ADME, organism-based
- Set-up: dose 5 mg/kg, route oral
- run_parameters: in vivo
metric: Tmax

INSERT INTO measurements (smiles_record, result) VALUES
  ('CCCCC1(CCCC)C(=O)C(C2=NS(=O)(=O)c3cc(NS(C)(=O)=O)ccc3N2)=C(O)c2ccccc21', '3 h');

----------
- assay_notes: Drug level in rat liver at 5 mg/kg, po after 24 hrs
- Format: ADME, organism-based
- Design: dose 5 mg/kg, route oral
- run_parameters: read-out: Activity
metric: concentration at 24 h (ng/g)

INSERT INTO results (smiles_record, metric, quantitative_result) VALUES
  ('CCCCC1(CCCC)C(=O)C(C2=NS(=O)(=O)c3cc(NS(C)(=O)=O)ccc3N2)=C(O)c2ccccc21', 'concentration at 24 h', 150);

----------
- assay_notes: Volume of distribution at terminal phase in rat at 5 mg/kg, iv
- Assay type: ADME, organism-based
- Design: dose 5 mg/kg, route intravenous
- run_parameters: in vivo, read-out: Vbeta
metric: Vd (L/kg)

INSERT INTO results (smiles_record, metric, quantitative_result) VALUES
  ('CCCCC1(CCCC)C(=O)C(C2=NS(=O)(=O)c3cc(NS(C)(=O)=O)ccc3N2)=C(O)c2ccccc21', 'Vd', 6.11);

----------
- assay_notes: Cmax in rat plasma at 5 mg/kg, po
- Assay type: ADME, organism-based
- Set-up: dose 5 mg/kg, route oral
metric: Cmax (ng/mL)

INSERT INTO measurements (smiles_record, metric, value_unit, quantitative_result) VALUES
  ('CCCCC1(CCCC)C(=O)C(C2=NS(=O)(=O)c3cc(NS(C)(=O)=O)ccc3N2)=C(O)c2ccccc21', 'Cmax', 'ng/mL', 580);
